Property: Ki; scope: individual compounds
biological target: Human Recombinant Matriptase 2 (Homo sapiens); construct: made in house; assay: Matriptase 2 inhibition, fluorescence based assay (Method I); type: biochemical; details: Table A; Ki of Matriptase-2; read-out: Mat-2 Ki

[
  {
    "compound": "Cc1nccn1CCOC(=O)c1cc2ccc(CN)nc2n1Cc1cc(NS(=O)(=O)Cc2ccccc2)cc2ccccc12",
    "quantity-kind": "Ki",
    "value-reported": "100 to 500 nM"
  },
  {
    "compound": "CC(C)(C)n1ccnc1COC(=O)c1cc2ccc(CN)nc2n1Cc1cc(NS(=O)(=O)Cc2ccccc2)cc2ccccc12",
    "quantity-kind": "Ki",
    "value-reported": "≤ 100 nM"
  }
]

Please give the measured Ki for this compound: Cc1cccc(C)c1CS(=O)(=O)Nc1cc(Cn2c(C(=O)OCCCN3CCOCC3)cc3ccc(CN)nc32)c2ccccc2c1
≤ 100 nM

Please give the measured Ki for this compound: COCCOC(=O)c1cc2ccc(CN)nc2n1Cc1cc(NS(=O)(=O)Cc2ccccc2)cc2ccccc12
100 to 500 nM

Please give the measured Ki for this compound: CC(C)N(C)CCOC(=O)c1cc2ccc(CN)nc2n1Cc1cc(NS(=O)(=O)Cc2ccccc2)cc2ccccc12
≤ 100 nM

====

Property: pKi; scope: individual compounds
Molecular target: Human Recombinant Matriptase 2 (Homo sapiens, UniProt Q8IU80)
Construct: made in house
Sequence (Q8IU80 1-811): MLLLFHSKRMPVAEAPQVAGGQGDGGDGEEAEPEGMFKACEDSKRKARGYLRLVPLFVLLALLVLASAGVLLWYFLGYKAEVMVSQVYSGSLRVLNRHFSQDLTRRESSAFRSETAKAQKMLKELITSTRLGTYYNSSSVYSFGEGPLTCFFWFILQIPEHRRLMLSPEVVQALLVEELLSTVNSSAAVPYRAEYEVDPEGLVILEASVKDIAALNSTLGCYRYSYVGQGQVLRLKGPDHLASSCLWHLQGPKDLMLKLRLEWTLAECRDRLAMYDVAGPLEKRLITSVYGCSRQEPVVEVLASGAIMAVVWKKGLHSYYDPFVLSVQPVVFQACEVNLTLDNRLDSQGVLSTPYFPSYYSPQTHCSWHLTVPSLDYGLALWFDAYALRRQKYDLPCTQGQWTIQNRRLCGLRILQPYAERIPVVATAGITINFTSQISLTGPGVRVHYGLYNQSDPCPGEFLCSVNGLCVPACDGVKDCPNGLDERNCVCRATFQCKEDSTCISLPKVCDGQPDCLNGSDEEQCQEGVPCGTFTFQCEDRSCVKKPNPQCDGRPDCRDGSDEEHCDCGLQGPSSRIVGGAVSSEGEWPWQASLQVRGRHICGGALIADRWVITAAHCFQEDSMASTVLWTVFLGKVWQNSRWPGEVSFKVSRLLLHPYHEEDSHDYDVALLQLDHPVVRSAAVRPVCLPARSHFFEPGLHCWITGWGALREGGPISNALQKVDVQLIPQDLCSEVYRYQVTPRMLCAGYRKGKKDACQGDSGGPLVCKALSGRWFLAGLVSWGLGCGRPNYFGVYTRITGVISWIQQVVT
Test: Matriptase 2 inhibition, fluorescence based assay (Method I)
Type: biochemical
Conditions: Table A; Ki of Matriptase-2 given as class symbols; read-out: Mat-2 Ki
pKi: −log10 of the molar value.

Recorded results for 2 compounds are shown here.
[
  {
    "compound": "NCc1ccc2cc(C(=O)O)n(Cc3cc(NS(=O)(=O)Cc4ccccc4F)cc4ccccc34)c2n1",
    "pKi": "6.30 to 7.00"
  },
  {
    "compound": "NCc1ccc2cc(C(=O)O)n(Cc3cc(NS(=O)(=O)CC4CCNCC4)cc4ccccc34)c2n1",
    "pKi": "6.30 to 7.00"
  }
]

Please give the measured pKi for this compound: C[C@@H](C(=O)N(C)C)S(=O)(=O)Nc1cc(Cn2c(C(=O)O)cc3ccc(CN)nc32)c2ccccc2c1 (racemic)
≥ 7.00

Please give the measured pKi for this compound: NCc1ccc2cc(C(=O)O)n(Cc3cc(NS(=O)(=O)CCN4CCNCC4)cc4ccccc34)c2n1
≥ 7.00

meta.source: patent US20240400553A1
